test.system: HDAC1 (Homo sapiens (Human))
Sequence (Q13547 whole entry): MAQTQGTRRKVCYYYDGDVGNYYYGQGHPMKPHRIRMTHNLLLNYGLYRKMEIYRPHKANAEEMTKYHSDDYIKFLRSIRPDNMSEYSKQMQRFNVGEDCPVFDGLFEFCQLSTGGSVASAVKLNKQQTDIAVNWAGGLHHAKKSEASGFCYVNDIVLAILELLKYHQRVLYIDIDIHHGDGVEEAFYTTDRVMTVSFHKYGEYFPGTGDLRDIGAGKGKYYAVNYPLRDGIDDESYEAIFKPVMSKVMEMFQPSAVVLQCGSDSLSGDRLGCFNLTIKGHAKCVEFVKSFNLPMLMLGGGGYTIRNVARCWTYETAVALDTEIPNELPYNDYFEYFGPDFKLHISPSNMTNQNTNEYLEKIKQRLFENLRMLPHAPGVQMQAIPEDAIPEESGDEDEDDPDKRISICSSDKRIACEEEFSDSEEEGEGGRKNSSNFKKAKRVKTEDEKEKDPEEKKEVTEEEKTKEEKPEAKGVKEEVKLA
quantity.measured: pIC50
// field semantics: pIC50 = negative decimal log of concentration (mol/L)

# input // pIC50 lookup, key: Cc1noc(CC(=O)N(Cc2ccc(-c3noc(C(F)(F)F)n3)cn2)c2cccc(F)c2)n1 [Example 396]
# output 6.42

# input // pIC50 lookup, key: Cc1cncc(OCc2ccc(-c3noc(C(F)(F)F)n3)c(F)c2)c1 [Example 269]
# output 5.15

# input // pIC50 lookup, key: O=C(NC(Cc1ccc(-c2noc(C(F)(F)F)n2)cn1)c1cccc(C(F)(F)F)c1)c1ncccn1 (racemic) [Example 484]
# output 6.22

# input // pIC50 lookup, key: O=C(OCCOCCCl)[C@@H]1CCC(=O)N1c1ccc(-c2noc(C(F)(F)F)n2)c(F)c1 [Example 197]
# output 5.92

# input // pIC50 lookup, key: FC(F)(F)c1nc(-c2ccc(CNc3cccc(-c4cnco4)c3)nc2)no1 [Example 360]
# output 8.12

# input // pIC50 lookup, key: CC1(C)CCCCN1C(=O)[C@@H]1CCC(=O)N1c1ccc(-c2noc(C(F)(F)F)n2)c(F)c1 [Example 343]
# output 4.62

# input // pIC50 lookup, key: Cc1nc2cc(F)ccc2n1Cc1ccc(-c2noc(C(F)(F)F)n2)cn1 [Example 466]
# output 6.08

# input // pIC50 lookup, key: Cn1nc(C(=O)N(Cc2ccc(-c3noc(C(F)(F)F)n3)cc2)c2cccc(C(F)(F)F)c2)ccc1=O [Example 88]
# output 6.03

# input // pIC50 lookup, key: Fc1cc(COc2[nH]nc3c2COCC3)ccc1-c1noc(C(F)(F)F)n1 [Example 249]
# output 5.51

# input // pIC50 lookup, key: O=C(NC(Cc1ccc(-c2noc(C(F)(F)F)n2)cn1)c1cccc(C(F)(F)F)c1)c1ccccc1 (racemic) [Example 486]
# output 6.16

# input // pIC50 lookup, key: O=C([C@@H]1CCC(=O)N1c1cc(F)c(-c2noc(C(F)(F)F)n2)cc1F)N1CCCC1 [Example 336]
# output 5.00

# input // pIC50 lookup, key: FC(F)(F)c1nc(-c2ccc(N3CCOCC3c3cccnc3)nc2)no1 (stereo not shown) [Example 143]
# output 5.21

# input // pIC50 lookup, key: Cc1noc([C@@H]2COCC(=O)N2c2ccc(-c3noc(C(F)(F)F)n3)cc2)n1 [Example 47]
# output 5.82

# input // pIC50 lookup, key: O=c1ccc2ccccc2n1Cc1ncc(-c2noc(C(F)(F)F)n2)cn1 [Example 474]
# output 6.66

# input // pIC50 lookup, key: Cc1noc([C@@H]2CCC(=O)N2c2ccc(-c3noc(C(F)(F)F)n3)cc2)n1 [Example 122]
# output 6.14

# input // pIC50 lookup, key: Fc1cc(COc2ccc3cncnc3c2)ccc1-c1noc(C(F)(F)F)n1 [Example 285]
# output 5.47
